Can you tell me collision cross section (N2) for the items I'm about to list?
stated.conditions: [M+H]+; instrument: TW; calibrated with polyalanine and drug standards
Give bare numbers, in Å².

O=C(/C=C/c1ccccc1)c1ccc(O)cc1 [4'-HYDROXYCHALCONE] | 150.8
CCOC(=O)c1ccc(N)cc1 [BENZOCAINE] | 145.9

Batch request: collision cross section (N2) per item, same order as input.
1. C[C@@H]1CC[C@H]2[C@](C)(CO)[C@@H](O)CC[C@]2(C)[C@@]12CC[C@@](CO)(CCO)O2 [LAGOCHILIN]
2. NC(=O)c1ncn([C@@H]2O[C@H](CO)[C@@H](O)[C@H]2O)c1N [ACADESINE]
3. CC[C@@]1(O)C(=O)OCc2c1cc1n(c2=O)Cc2cc3ccccc3nc2-1 [CAMPTOTHECIN]

[171.2, 153, 181.9]

Values from the C3SDB collision cross section collection
